Tested on: Candida albicans
Test: Antifungal activity against planktonic form of Candida albicans ATCC 10231 by broth microdilution method
Assay type: organism-based
Details: in vitro
Metric: MIC50

Field: example entries. Status: answers known.
{"columns": ["Compound", "Metric", "Reported"],
 "data": [
  ["c1ccc(CNCCc2c[nH]c3ccccc23)cc1", "MIC50", "> 128 µg/mL"],
  ["COc1ccc(CNCCc2c[nH]c3ccccc23)cc1[N+](=O)[O-]", "MIC50", "> 128 µg/mL"],
  ["O=[N+]([O-])c1ccc(N2CCN(Cc3c[nH]c4ccccc34)CC2)cc1", "MIC50", "> 128 µg/mL"],
  ["CC(C)Cc1ccc(C(C)C(=O)NCCc2c[nH]c3ccccc23)cc1 (stereo unspecified)", "MIC50", "> 128 µg/mL"],
  ["O=[N+]([O-])c1ccc(CNCCc2c[nH]c3ccccc23)cc1", "MIC50", "> 128 µg/mL"],
  ["Brc1ccc(CNCCc2c[nH]c3ccccc23)cc1", "MIC50", "64 µg/mL"],
  ["O=[N+]([O-])c1ccc(/C=C/CNCCc2c[nH]c3ccccc23)cc1", "MIC50", "> 128 µg/mL"],
  ["O=[N+]([O-])c1ccccc1CNCCc1c[nH]c2ccccc12", "MIC50", "> 128 µg/mL"]
]}

Value lookup for MIC50; key = c1ccc2cc(CNCCc3c[nH]c4ccccc34)ccc2c1
16 µg/mL

Would you kindly repeat that for O=C(NCCc1c[nH]c2ccccc12)c1ccc([N+](=O)[O-])o1 ?
> 128 µg/mL

Would you kindly repeat that for Brc1cccc(CNCCc2c[nH]c3ccccc23)c1 ?
64 µg/mL

====

Test system: Candida albicans
Assay: Antibiofilm activity against Candida albicans ATCC 10261 assessed as inhibition of biofilm formation by XTT reduction assay
Assay type: functional
Reported MBIC50 values follow for various molecules
I only need the number, in µg/mL, no unit after it.

{"columns": ["Molecule", "MBIC50 (µg/mL)"],
 "data": [
  ["Brc1ccc(CNCCc2c[nH]c3ccccc23)cc1", 8]
]}

Lab request: please report MBIC50 under test system Candida albicans for CC(C)Cc1ccc(C(C)C(=O)NCCc2c[nH]c3ccccc23)cc1 (configuration not stated)
8

Would you kindly repeat that for c1ccc2c(CCNCc3ccc(CNCCc4c[nH]c5ccccc45)cc3)c[nH]c2c1 ?
4

Would you kindly repeat that for c1ccc(Oc2ccc(CNCCc3c[nH]c4ccccc34)cc2)cc1 ?
8

Would you kindly repeat that for c1ccc2cc(CNCCc3c[nH]c4ccccc34)ccc2c1 ?
8

Would you kindly repeat that for O=[N+]([O-])c1ccc(N2CCN(Cc3c[nH]c4ccccc34)CC2)cc1 ?
32

====

Test: Toxicity in Galleria mellonella larvae assessed as larval survival at 1000 ug/ml after 72 hrs relative to control
Metric: survival at 72 h (%)
I only need the number, in %, no unit after it.

Value lookup for survival at 72 h; key = CC(C)Cc1ccc(C(C)C(=O)NCCc2c[nH]c3ccccc23)cc1 (stereo unspecified)
100

====

System: Candida albicans
Assay: Antibiofilm activity against Candida albicans ATCC 10261 assessed as inhibition of mature biofilm formation by XTT reduction assay
Assay type: functional
Metric: MBIC50

{"columns": ["Compound", "System Name", "MBIC50"],
 "data": [
  ["Brc1ccc(CNCCc2c[nH]c3ccccc23)cc1", "Candida albicans", "8 µg/mL"]
]}

Lab request: please report MBIC50 under test system Candida albicans for O=[N+]([O-])c1ccc(N2CCN(Cc3c[nH]c4ccccc34)CC2)cc1
8 µg/mL

Would you kindly repeat that for OC(Cn1cncn1)(Cn1cncn1)c1ccc(F)cc1F ?
>64 µg/mL

Would you kindly repeat that for c1ccc(Oc2ccc(CNCCc3c[nH]c4ccccc34)cc2)cc1 ?
8 µg/mL

Would you kindly repeat that for c1ccc2cc(CNCCc3c[nH]c4ccccc34)ccc2c1 ?
8 µg/mL

Would you kindly repeat that for CC(C)Cc1ccc(C(C)C(=O)NCCc2c[nH]c3ccccc23)cc1 (configuration not stated) ?
8 µg/mL

Would you kindly repeat that for c1ccc2c(CCNCc3ccc(CNCCc4c[nH]c5ccccc45)cc3)c[nH]c2c1 ?
4 µg/mL
